- run_description: yeast display, Sf9 membrane polyspecificity reagent, FACS + sequencing; frameworks hold sequencing errors
reported_metric: polyreactivity (PSR sort gate)

Here's what some known entries look like.
QVQLVESGGGLVQAGGSLRLSCAASGRIFGGNAMGWFRQAPGKERELVAASTTRGGSTSADSVKGRFTISRDNAKNTVYLHMNSLKPEATAVYYCAVARSSHGGPRYLVRTYGYWGQATQVTVSS | low polyreactivity
QVQLVESGGGLVQAGGSLRLSCAASGSTFLSYAMGWYRQAPGKERELVARITSSGGNTYYADSVKGRFTISRDNAKNTVYLQMNSLKPEDTAVYYCAVSLEDQQYIFDYWGQGTQVTVSS | low polyreactivity
QVQLVESGGGLVQAGGSLRLSCAASGSTFQNNAMGWYRQAPGKERELVATISRRGGSTYYADSVKGRFTISRDIAKNTVYLQMNSLKPEDTAVYYCTGRDYWGQGTQVTVSS | high polyreactivity
QVQLVQSGGGLVHAGGSLRLSCAASGRISFYYAMGWYRQAPGKERELVAAISRGGSTYYPDSVKGRFTISRDNAKNTVFLQMNSLKPEDTAVYYCAATYSGVDTPSGYDYWGQGTQVTVSS | low polyreactivity
QVQLVESGGGLVQAGGRLRLSCAASGSIFYRSAMGWYRQAPGKERELVAAITRSDGRTYYADSVKGRFTISRDNAKNTVYLQMNSLKPEDTAVYYCNKDGAYKTAYKRWTLYDYWGQGTQVTVSS | low polyreactivity

With those in mind, consider the next sequence.
# polyreactivity (PSR sort gate) lookup, item `QDQLVESGGGLVQAGGSLRLSCAASGSTFSWYAMGWYRQAPGKERELVAAINNRSGSTSYADSVKGRFTISRDNAKNTVYLQMNSLKPEDTAVYYCAAEGTDGLYDWEYDYWGQGTQVTVSS` high polyreactivity
